abundance fitness: recorded values
B1: Advillin, residues 785 to 819; numbered along this chain, O75366 (parent)
chain: LSEQDFVSVFGITRGQFAALPGWKQLQMKKEKGLF

variants of: B1; assay: abundance fitness (aPCA) (normalised: wild type 0, dead -1); higher = more abundant; growth selection in yeast, the domain comes from the species named; settings: Homo sapiens

Please review the entries below; each comes with its answer.
Reported abundance fitness, variant F17R : ____
-0.554

And what about the variant G15E ?
0.238

And what about the variant A18L ?
-0.062

Here is another variant to look at.
Reported abundance fitness, variant F35W : ____
-0.13
